Test system: PD-1 (PDCD1) (Homo sapiens (Human)) (UniProt Q15116)
Sequence (Q15116 21-288): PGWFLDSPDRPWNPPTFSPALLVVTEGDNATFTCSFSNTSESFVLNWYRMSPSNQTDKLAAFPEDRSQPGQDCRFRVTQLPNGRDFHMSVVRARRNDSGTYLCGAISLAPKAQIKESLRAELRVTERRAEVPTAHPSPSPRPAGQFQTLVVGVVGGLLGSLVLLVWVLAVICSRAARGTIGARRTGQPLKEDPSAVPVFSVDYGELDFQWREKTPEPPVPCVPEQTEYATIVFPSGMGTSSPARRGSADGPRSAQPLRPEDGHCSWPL
Procedure summary: cell-based or functional assay
Assay metric: IFN gamma levels pg/mL (MLR) (pg/mL)
A number alone suffices; assume pg/mL.

IFN gamma levels pg/mL (MLR) recorded for this binder, PD-L2 H15Q/Q72H/Q74R/R76G/I86T IgV-Fc (Fc fusion, not shown: a dimerising Fc or GST) LFTVTVPKELYIIEQGSNVTLECNFDTGSHVNLGAITASLQKVENDTSPHRERATLLEEQLPLGKASFHIPHVRVGDEGQYQCIITYGVAWDYKYLTLKVKA , is 934

IFN gamma levels pg/mL (MLR) recorded for this binder, PD-L2 I13V/H15Q/T47A/Q72H/R76G/I86T IgV-Fc (Fc fusion, not shown: a dimerising Fc or GST) LFTVTVPKELYIVEQGSNVTLECNFDTGSHVNLGAITASLQKVENDASPHRERATLLEEQLPLGKASFHIPHVQVGDEGQYQCIITYGVAWDYKYLTLKVKA , is 1090
